Test system: LOX IMVI melanoma
EXPERIMENTAL DETAILS: NCI-60 one-dose screen, 48 h
ASSAY SETUP: 10 µM unless noted
About 83,000 compounds went through this panel and 20% of them were active in at least one assay; those are over-represented in the sample as a whole. Active and inactive are the calls of the source. Rule for the calls: active = growth percent below 10; inactive = the rest.
Possible outcomes: yes = active, no = inactive

COMPOUND | CLASS LABEL
O=C(N/N=C/c1cc(Cl)ccc1O)c1ccccc1Nc1ccnc(C(F)(F)F)c1 | no
COc1ccccc1C(=O)Nc1cccc(NC(=O)c2ccoc2C)c1 | no
Cn1cc(-c2ccc(-c3cn(C)c4ccc(Cl)cc34)[nH]2)c2cc(Cl)ccc21 | yes
Cc1ncc(C(=O)Nc2ccc(CN3CCN(C)CC3)c(C(F)(F)F)c2)cc1C#Cc1cnc(N)c2ncccc12 | yes
N#C/C(=C\c1ccc(-c2cccc(C(F)(F)F)c2)o1)c1ccccc1 | no
COc1cc(C(=O)n2nc(N3CCOCC3)c3cc(-n4cccc4)ccc32)cc(OC)c1OC | no
CNC1=C([N+](=O)[O-])C(c2ccc(OC)cc2)C(C#N)=C(c2cccs2)O1 (centres undefined) | no
NC1(CO)COC(c2ccccc2)OC1 (centres undefined) | no
CNC(C)[C@H]1CCC2C3CC=C4C(=O)[C@@H](NC(=O)C=C(C)C)CC[C@]4(C)C3CC[C@@]21C (some centres undefined) | yes
CC1=CCC(OC(=O)C(C)(C)CC(O)(C(C)O)C(O)C2(C)C=CC(Cc3ccc(C(C)C)cc3)(C(C)C)CC2)(C(C)C)CC1 (centres undefined) | yes
COc1cc(Cl)c(C)cc1NC(=O)c1cc2ccccc2cc1O | yes
CNC(=O)c1cc(Oc2cccc3nc(NC(=O)Nc4cc(C(F)(F)F)ccc4Cl)ccc23)ccn1 | no
O=C(CN1CCN(c2cc3c(cc2F)c(=O)c(C(=O)O)cn3C2CC2)CC1)N/N=C/c1ccco1 | no
CCOC(=O)c1c(C)nc2ccccc2c1/C=C/c1cccs1 | no
CN(Cc1cc(Br)cc(Br)c1O)Cc1cc(Br)cc(Br)c1O | no
COc1ccc(-c2nn(-c3ccccc3)cc2/C=C/C(=O)NNC(=O)Nc2ccc(C)cc2)cc1 | no
CCN1C(=O)N(CC)C2C1NN=c1s/c(=C\c3cnc(C)n3C)c(=O)n12 (centres undefined) | no
Nc1nc(NC(=O)Nc2ccc(C(=O)O)cc2)nn1-c1ccc(S(N)(=O)=O)cc1 | no
Cc1nn(-c2cc(NC3CCC(O)CC3)c3c(=O)[nH]c(CCC(F)(F)F)cc3c2)c2c1C(=O)CC(C)(C)C2 (centres undefined) | no

----------
System: OVCAR-4 ovarian
EXPERIMENTAL DETAILS: NCI-60 one-dose screen, 48 h
ASSAY SETUP: 10 µM unless noted
Method: Growth inhibition of the OVCAR-4 human tumor cell line is measured as a screen for anti-cancer activity. Cells are grown in 96 well plates and exposed to the test compound for 48 hours. Compounds are tested at a single concentration, which is 10^-5 M for most compounds. The reported endpoint is percent growth (GI% or GIPRCNT), where numbers from 0 - 100% represent growth inhibition, and numbers from -100% - 0 represent cell death. For example, a value of 40 represents 60% growth inhibition. […]
This is part of a sample that, as a whole, favours compounds with a hit. Of some 83,000 tested, about 20% had one in any assay. Active and inactive are the calls of the source. How the source made its calls: active means growth percent below 10; inactive means the rest.
Possible outcomes: active, inactive

COMPOUND | ASSAYED SYSTEM | CLASS LABEL
COC(=O)c1nc(-c2ccccc2)oc1S(=O)(=O)NCC(c1ccc(Cl)cc1)N1CCOCC1 (stereo not given) | OVCAR-4 ovarian | inactive
CN(C)CCN1C(=O)c2cccc3c(/C=C/CN4C(=O)c5cccc6cccc(c56)C4=O)ccc(c23)C1=O | OVCAR-4 ovarian | active
CCOC(=O)c1cnc2c(N=Nc3ccc(OC)cc3)c(N)nn2c1N | OVCAR-4 ovarian | inactive
COc1ccc(/C=C/C(c2cc(OC)c(OC)c(OC)c2)n2cncn2)cc1 (stereo not given) | OVCAR-4 ovarian | inactive
COc1cc(-c2nc3c(ncc4ccc(=O)n(-c5ccccc5)c43)s2)cc(OC)c1OC | OVCAR-4 ovarian | inactive

----------
System: HCT-116 colon
EXPERIMENTAL DETAILS: NCI-60 one-dose screen, 48 h
ASSAY SETUP: 10 µM unless noted
The panel holds about 83,000 compounds, 20% with a hit somewhere; the sample as a whole holds those more often. Active and inactive are the calls of the source. Rule for the calls: active = growth percent below 10; inactive = the rest.
Possible outcomes: label 1 = active, label 0 = inactive

MOLECULE | CLASS LABEL
COc1ccc(/C=C/C(c2cc(OC)c(OC)c(OC)c2)n2ccnc2)cc1O (centres undefined) | label 0
CC(C)(C)c1cc(Cl)c(O)c(CNCCO)c1 | label 0
Nc1nc(NC(=O)Nc2ccc(C(=O)O)cc2)nn1-c1ccc(S(N)(=O)=O)cc1 | label 0
C/C=C(\C)C(=O)N[C@H]1C(O)C[C@]2(C)C3CC[C@@]4(C)C(CC[C@@H]4C(C)N(C)C)C3CCC2C1O (some centres undefined) | label 1
O=c1nc(-c2ccccc2)c2cc(-c3ccc(C(F)(F)F)nc3)ccc2[nH]1 | label 0
Cc1cn(-c2cc(NC(=O)c3cncc(C#Cc4c(N)ncc5ccc(F)cc45)c3)cc(C(F)(F)F)c2)cn1 | label 0
COc1ccc(C(=O)/C=C/c2ccc(Cl)cc2)cc1S(=O)(=O)Nc1c(N)nc(SC)[nH]c1=O | label 0
COc1ccc(N2CCN(C(=O)c3sc4nc(C)c(Br)c(C)c4c3N)CC2)cc1 | label 0
O=C1/C(=C/c2ccc(F)cc2)CN(C(=O)C(Cl)Cl)C/C1=C\c1ccc(F)cc1 | label 1
CCCCCCCC/C=C\CCCCCCCCOc1ccc(CC(=O)NCC[N+]2(C)CCOCC2)cc1 | label 0
O=C(Oc1ccc(CCl)cc1)c1ccccc1 | label 1
N#Cc1cncc(-c2ccc3ncnc(Nc4cccc(Cl)c4)c3c2)c1 | label 0
O=C(Nc1ccc(Br)cc1)C1=NCCCCN1 | label 0
Cc1ccc(-c2csc(N(C(=O)N3CCN(c4cc5c(cc4F)c(=O)c(C(=O)O)cn5C4CC4)CC3)c3ccccc3)n2)cc1 | label 1
C#COc1cccc(Nc2ncnc3cc(NC(=O)[C@@H](C)Cl)ccc23)c1 | label 1
Cc1c2ccncc2c(C)c2c1c1cc(CO)ccc1n2C | label 1
C=C(C)[C@@H]1CCC[C@]2(C(=O)N3CCN(C)CC3)CC[C@]3(C)[C@@H](CC[C@@H]4[C@@]5(C)CC/C(=N\NC(=O)c6ccncc6)C(C)(C)[C@@H]5CC[C@]43C)[C@@H]12 | label 0
Cc1ncc(C(=O)Nc2ccc(CN3CCN(C)CC3)c(C(F)(F)F)c2)cc1C#Cc1cnc(N)c2ncccc12 | label 1
CC1(C)N=C(N)N=C(N)N1c1ccc(CCCCc2ccccc2)c(Cl)c1 | label 0

----------
Test system: SK-OV-3 ovarian
EXPERIMENTAL DETAILS: NCI-60 one-dose screen, 48 h (100 = growth as untreated, 0 = no growth, -100 = all killed)
ASSAY SETUP: 10 µM unless noted
This is part of a sample that, as a whole, favours compounds with a hit. Of some 83,000 tested, about 20% had one in any assay.
Use 70% as the dividing line for growth, with the line itself on the 1 side and lower values as 0.

COMPOUND | CLASS LABEL
Nc1nc(N)c2c(n1)NC(c1cccc(Nc3ccnc4cc(C(F)(F)F)ccc34)c1)CC(c1ccccc1)=N2 (stereo not drawn) | 0
CS(=O)(=O)Nc1cc(-c2ccc3ncc(C#N)c(Nc4ccc(F)c(Cl)c4)c3c2)cnc1Cl | 0
Cc1ccc2nc(/C(C#N)=C(/CCCO)NC(Cc3ccccc3)C(=O)OCc3ccccc3)[nH]c(=O)c2c1 (stereo not drawn) | 1
COc1ccc2nc(Cl)c(/C=C3\CC(c4ccccc4)=NN(c4ccccc4)C3=O)cc2c1 | 0
O=C1Nc2c(C(=O)O)cccc2/C1=N/c1n[nH]c(=S)s1 | 1
CN1CCN(Cc2ccc(NC(=O)c3cncc(C#Cc4cnc5ccc(Cl)nn45)c3)cc2C(F)(F)F)CC1 | 0
COc1ccc(C(=O)Cn2c(C(=O)c3ccc(OC)cc3)nc3ccccc32)cc1 | 0
CO[C@H](C(=O)[C@@H](O)[C@@H](C)O)[C@@H]1Cc2cc3cc(O[C@H]4C[C@@H](O[C@H]5C[C@@H](O)[C@H](O)C(C)O5)[C@H](O)C(C)(O)O4)cc(O)c3c(O)c2C(=O)[C@H]1O[C@H]1C[C@@H](O[C@H]2C[C@@H](O[C@H]3C[C@@H](OC)[C@H](O)C(C)O3)[C@@H](O)C(C)O2)[C@H](O)C(C)O1 (stereo partly drawn) | 0

----------
Test system: KM12 colon
EXPERIMENTAL DETAILS: NCI-60 one-dose screen, 48 h
ASSAY SETUP: 10 µM unless noted
Compounds without any hit were thinned out: in the full panel of roughly 83,000, 20% have a hit. Activity calls are given as the source filed them. Rule for the calls: active = growth percent below 10; inactive = the rest.
Possible outcomes: active, inactive

COMPOUND | CLASS LABEL
Ic1ccccc1I | inactive
COc1ccc2c(c1)c(-c1nc(-c3c[nH]c4ncccc34)cs1)cn2CCCN1CCOCC1 | inactive
O=C(O)[C@@H](Cc1ccc2ccccc2c1)NC(=O)n1c2ccccc2c2ccccc21 | inactive
O=C(NNC(=O)c1ccc(NC(=O)c2ccccn2)cc1)Nc1ccc2ccccc2c1 | inactive
Cc1nc2sc(C(=O)Nc3cccc(Br)c3C)c(N)c2cc1C(O)c1ccccc1 (stereo unspecified) | active
O=C(Nc1ncccc1OCc1ccccc1)NC1CCCCCC1 | inactive
CCOC(=O)C1=C(C)C(Cl)=N/C1=C\c1[nH]c(Cl)c(C)c1C(=O)OCC | inactive
COc1cccc(NCc2nnc(Nc3ccc(Cl)cc3)c3ccccc23)c1 | active
Cn1c2c(c3ccc(Cl)c(Cl)c31)C(C#N)C(C)(C)NC2=O (stereo unspecified) | inactive
O=C(NC1CC(F)C1)c1cc2cccnc2n1-c1ccc(Cl)c(Cl)c1 (stereo unspecified) | inactive
O=C1Nc2c(C(=O)O)cccc2/C1=N/c1n[nH]c(=S)s1 | inactive

// data source = PubChem BioAssay (NCI)
